- MEASURED ON: P99 AmpC (Enterobacter cloacae, UniProt P05364)
- Sequence (P05364 21-381): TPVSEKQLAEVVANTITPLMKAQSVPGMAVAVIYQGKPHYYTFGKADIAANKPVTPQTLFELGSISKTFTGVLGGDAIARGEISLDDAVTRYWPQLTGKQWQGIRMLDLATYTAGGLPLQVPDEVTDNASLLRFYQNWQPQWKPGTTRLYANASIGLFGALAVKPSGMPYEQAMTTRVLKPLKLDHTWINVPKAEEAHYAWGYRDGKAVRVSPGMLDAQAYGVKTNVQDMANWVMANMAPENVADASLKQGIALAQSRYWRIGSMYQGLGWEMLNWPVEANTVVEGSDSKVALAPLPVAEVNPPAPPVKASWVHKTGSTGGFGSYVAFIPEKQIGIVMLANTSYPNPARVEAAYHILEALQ
- ASSAY SUMMARY: β-lactamase inhibitory activity, nitrocefin hydrolysis
- TEST CONTEXT: class (C); 30 min pre-incubation; nitrocefin 200 μM
In this section we review reported IC50 values for a set of compounds.

COMPOUND: CC(C)(C)OC(=O)NCCn1c2c(sc1=O)C1CN(C2)C(=O)N1OS(=O)(=O)[O-].[Na+] (stereo not drawn)
MEASURED ON: P99 AmpC (Enterobacter cloacae, UniProt P05364)
IC50 / µM: 0.0059
--
COMPOUND: O=C1N2Cc3c(sc(=O)n3CCO)C(C2)N1OS(=O)(=O)[O-].[Na+] (stereo not drawn)
MEASURED ON: P99 AmpC (Enterobacter cloacae, UniProt P05364)
IC50 / µM: 0.024
--
COMPOUND: NCCn1c2c(sc1=O)C1CN(C2)C(=O)N1OS(=O)(=O)[O-].[Na+] (stereo not drawn)
MEASURED ON: P99 AmpC (Enterobacter cloacae, UniProt P05364)
IC50 / µM: 0.14
--
COMPOUND: COC(=O)Cn1c2c(sc1=O)C1CN(C2)C(=O)N1OS(=O)(=O)[O-].[Na+] (stereo not drawn)
MEASURED ON: P99 AmpC (Enterobacter cloacae, UniProt P05364)
IC50 / µM: 0.016
--
COMPOUND: N=C(N)NCCn1c2c(sc1=O)C1CN(C2)C(=O)N1OS(=O)(=O)[O-].[Na+] (stereo not drawn)
MEASURED ON: P99 AmpC (Enterobacter cloacae, UniProt P05364)
IC50 / µM: 0.38
--
COMPOUND: Cn1c2c(sc1=O)C1CN(C2)C(=O)N1OS(=O)(=O)[O-].[Na+] (stereo not drawn)
MEASURED ON: P99 AmpC (Enterobacter cloacae, UniProt P05364)
IC50 / µM: 0.048
